- target.under.test: HER2 INS YVMA (Homo sapiens, UniProt P04626, INS775YVMA)
- Construct: purchased DPF
- Sequence (P04626 with tags, fused parts or gaps INS775YVMA): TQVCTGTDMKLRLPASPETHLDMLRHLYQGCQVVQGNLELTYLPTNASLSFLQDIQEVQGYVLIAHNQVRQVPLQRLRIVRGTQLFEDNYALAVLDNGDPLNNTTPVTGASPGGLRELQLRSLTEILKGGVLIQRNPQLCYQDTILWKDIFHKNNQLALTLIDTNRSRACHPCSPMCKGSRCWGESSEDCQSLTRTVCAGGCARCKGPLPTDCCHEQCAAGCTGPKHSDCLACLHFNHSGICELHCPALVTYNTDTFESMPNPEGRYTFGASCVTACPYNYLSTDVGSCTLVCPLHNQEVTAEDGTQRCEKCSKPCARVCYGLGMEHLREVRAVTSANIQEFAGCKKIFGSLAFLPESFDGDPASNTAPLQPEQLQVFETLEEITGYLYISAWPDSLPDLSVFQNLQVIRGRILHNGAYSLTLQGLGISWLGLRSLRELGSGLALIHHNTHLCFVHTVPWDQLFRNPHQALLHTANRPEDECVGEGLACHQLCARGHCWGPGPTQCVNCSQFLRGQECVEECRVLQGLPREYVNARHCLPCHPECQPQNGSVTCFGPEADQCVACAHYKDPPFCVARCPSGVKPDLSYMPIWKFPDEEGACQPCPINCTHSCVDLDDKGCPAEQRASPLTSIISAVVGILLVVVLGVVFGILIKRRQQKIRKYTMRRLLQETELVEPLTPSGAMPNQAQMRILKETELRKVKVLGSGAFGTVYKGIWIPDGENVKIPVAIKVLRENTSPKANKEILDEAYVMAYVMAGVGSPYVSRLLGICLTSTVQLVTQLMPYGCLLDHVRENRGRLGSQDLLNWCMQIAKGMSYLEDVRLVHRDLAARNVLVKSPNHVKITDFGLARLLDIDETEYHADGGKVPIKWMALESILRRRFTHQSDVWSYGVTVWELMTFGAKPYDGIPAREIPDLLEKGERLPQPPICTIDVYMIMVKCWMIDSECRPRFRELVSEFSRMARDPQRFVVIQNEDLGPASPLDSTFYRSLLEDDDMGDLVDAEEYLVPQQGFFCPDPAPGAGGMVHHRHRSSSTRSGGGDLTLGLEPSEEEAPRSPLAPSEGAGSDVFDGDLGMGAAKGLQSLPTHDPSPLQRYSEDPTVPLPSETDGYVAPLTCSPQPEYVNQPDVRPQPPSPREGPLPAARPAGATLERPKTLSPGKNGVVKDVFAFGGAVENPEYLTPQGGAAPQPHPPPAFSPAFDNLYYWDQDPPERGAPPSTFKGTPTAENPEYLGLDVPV
- test.protocol: Lance Kinase Activity Assay, HER2 INS YVMA (Her2 Exon 20 INSYVMA Lance)
- Format: biochemical
- assay.setup: biochemical Lance assay
parameter.measured: IC50

molecule	IC50
C=CC(=O)Nc1cc(-c2c(-c3ccc(CCN(C)C)cc3)[nH]c3nccc(Cl)c23)ccc1C	≤ 100 nM

Parameters: items (list). Returns: IC50 for each item.
1. C=CC(=O)Nc1cc(-c2c(-c3ccc(N4CCN(C)CC4)cc3)[nH]c3ncc(C(=O)NC(C)C)cc23)ccc1C
2. C=CC(=O)N1CCc2ccc(-c3c(-c4ccc(N5CCN(C)CC5)cc4)[nH]c4nccc(OC(C)C)c34)cc21 [Example 115, 2,2,2-trifluoroacetate]
3. C=CC(=O)Nc1cc(-c2c(-c3ccc(N4CCN(C)CC4)cc3)[nH]c3ncc(C(=O)OC4CCCC4)cc23)ccc1C
4. C=CC(=O)Nc1cc(-c2c(-c3ccc(N4CCN(C)CC4)cc3)[nH]c3ncc(CC(=O)O)cc23)ccc1C [Example 189, 2,2,2-trifluoroacetate]
5. C=CC(=O)Nc1cc(-c2c(-c3ccc(OCCN4CCCC4)cc3)[nH]c3ncc(C(=O)OC(C)C)cc23)ccc1C

A:
1: ≤ 100 nM; 2: ≤ 100 nM; 3: 100 to 500 nM; 4: ≤ 100 nM; 5: ≤ 100 nM
